Numbers sourced from ChEMBL document CHEMBL3259682.

System: Plasmodium falciparum
Assay: Antimalarial activity against erythrocytic stage of chloroquine/pyrimethamine-resistant Plasmodium falciparum K1 after 48 hrs by [3H]-hypoxanthine incorporation assay
Format: functional, organism-based
Listed below: pIC50 values for each entry.
Reminder that pIC50 means the negative base-10 logarithm of the concentration expressed in mol/L.

A selection of reference data follows.
Compound	pIC50
NCCCNc1nc2ccc(Cl)cc2c2[nH]c3ccccc3c12	7.17
CN(C)CCCNc1nc2ccccc2c2[nH]c3ccccc3c12	7.60
O=C(NCCCNc1nc2ccccc2c2[nH]c3ccccc3c12)Nc1ccccc1	7.27
O=S(=O)(NCCCNc1nc2ccccc2c2[nH]c3ccccc3c12)c1ccccc1	7.03
O=C(NCCCCCCNc1nc2ccccc2c2[nH]c3ccccc3c12)Nc1ccccc1	7.61

Exercise: Could you share which pIC50 value was measured for NCCCCCNc1nc2ccccc2c2[nH]c3ccccc3c12 ?
Key: 7.60

Exercise: Entry C[C@@H]1CC[C@H]2[C@@H](C)C(=O)O[C@@H]3O[C@@]4(C)CC[C@@H]1[C@]32OO4 : reported pIC50 = ?
Key: 8.55

Exercise: Please report the recorded pIC50 for NCCCCCCNc1nc2ccccc2c2[nH]c3ccccc3c12 .
Key: 7.04

====

Reported IC50 by item:
System: L6
Assay: Cytotoxicity against rat L6 cells after 70 hrs by Alamar Blue assay
Type: functional, cell-based
Settings: L6, 70 h
Field: numeric (nM). Do not append units.

Compound	Reported
NCCCCCNc1nc2ccccc2c2[nH]c3ccccc3c12	816
Cc1ccc2nc(NCCCNC(=O)Nc3ccccc3)c3c4ccccc4[nH]c3c2c1	966
O=C(NCCCCCCNc1nc2ccccc2c2[nH]c3ccccc3c12)Nc1ccccc1	862
CN(C)CCCNc1nc2ccccc2c2c1c1ccccc1n2C	701
Cn1c2ccccc2c2c(NCCCNC(=O)Nc3ccccc3)nc3ccccc3c21	108

Exercise: IC50 of S=C(NCCCNc1nc2ccccc2c2[nH]c3ccccc3c12)Nc1ccccc1 on L6?
Key: 249

Exercise: Kindly state the measured IC50 obtained for CCN(CC)C(=O)NCCCNc1nc2ccccc2c2[nH]c3ccccc3c12 with L6.
Key: 3570

Exercise: Param readout = IC50; param system = L6; param query = Cn1c2ccccc2c2c(NCCCN)nc3ccc(Br)cc3c21 ; response: value
Key: 824

Exercise: Lab request: please report IC50 under test system L6 for CC(C)(CN)CNc1nc2ccc(Cl)cc2c2[nH]c3ccccc3c12
Key: 1840

Exercise: Please state recorded IC50 (tested on L6) of O=C(NCCCNc1nc2ccc(Cl)cc2c2[nH]c3ccccc3c12)Nc1ccccc1
Key: 2570

Exercise: Request: IC50, test system L6, entry Cn1c2ccccc2c2c(NCCCN)nc3ccc(F)cc3c21
Key: 292

Exercise: Tell me reported IC50 for Cc1ccc2nc(NCCCN)c3c4ccccc4n(C)c3c2c1 , tested with L6.
Key: 192

Exercise: What measured IC50 is associated with NCCCN1CCN(CCCNc2nc3ccccc3c3[nH]c4ccccc4c23)CC1 on L6?
Key: 1780

Exercise: Request body: readout IC50, system L6, query Cn1c2ccccc2c2c(NCC(C)(C)CN)nc3ccccc3c21 . Return the value.
Key: 259

Exercise: Please tell me: IC50 of CC(CN)CNc1nc2ccc(Cl)cc2c2[nH]c3ccccc3c12 (configuration not stated) , system L6?
Key: 1920

Exercise: Provide the documented IC50 with L6 as the system for NCCCCCCNc1nc2ccccc2c2[nH]c3ccccc3c12
Key: 1180
